Tested on: MDA-MB-231 breast
method notes: NCI tumour cell line growth inhibition, 48 h
value kind: TGI

NC1=NC(c2ccccc2)N=C(Nc2ccccc2)N1 (stereo not given)
> 100 µM
C=CCN1C(=O)/C(=C/c2ccc(C)cc2)N=C1SC/C=C/C
> 100 µM

Fill blank: measured TGI of the molecule O=C(O)Cc1ccc(N2N=C(c3ccccc3)CC2=O)cc1 is ____.
> 100 µM

Entry COc1ncc(-c2nc3c(n2C(C)C)[C@H](c2ccc(Cl)cc2)N(c2cc(Cl)cn(C)c2=O)C3=O)c(OC)n1 : reported TGI = ?
> 100 µM

Item O=C1C(Cl)=C(Nc2ccc3cn[nH]c3c2)C(=O)c2ccccc21 has what recorded TGI?
2.73 µM

I would be grateful if you could share the reported TGI for O=C(O)CCC1COc2ccccc2O1 (stereo not given) .
> 10 µM

Form field: reported TGI of Nc1nc2ccc([C@@H]3Nc4ccc5[nH]ncc5c4[C@H]4[C@H]5CCC(C5)[C@H]43)cc2s1
11.6 µM

# input molecule: COc1cc2c3c(n(CCCN4CCN(C)CC4)c(=O)c2cc1OC)-c1cc2c(cc1C3=O)OCO2 ; wanted: its TGI
32.4 µM

Give the measured TGI of C/C(Cl)=N\OC(=O)Nc1ccccc1C(F)(F)F .
46.9 µM

Which measured TGI value corresponds to CC(C)(C)OC(=O)C1=C(C(=O)OC(C)(C)C)SC2(S1)C(C(=O)OC(C)(C)C)=C(C(=O)OC(C)(C)C)Sc1c2ssc1=O ?
> 100 µM

* * *

System: UACC-257 melanoma
method notes: NCI tumour cell line growth inhibition, 48 h
value kind: TGI

Here's what some known entries look like.
O=C(CSc1nnc(Cc2ccccc2)o1)Nc1ccc(Cl)cc1
> 100 µM
COc1ccc(/C=C(/C(=O)N2CCCC2)c2cc(OC)c(OC)c(OC)c2)cc1N
> 100 µM
N#Cc1c(=O)c2cc([N+](=O)[O-])ccc2n2c1[nH]c1ccccc12
> 72 µM

// returns reported TGI for input Nc1ccn([C@H]2C[C@@H](O)[C@@H](CO)S2)c(=O)n1
> 100 µM

Endpoint output: TGI of COc1cc2c3c(n(CCN)c(=O)c2cc1OC)-c1cc2c(cc1C3=O)OCO2 . Value?
11.2 µM

Would you mind telling me what TGI value was observed for Oc1ccc2c(c1)OCC(O)(c1ccccc1O)C2 (stereo not given) ?
> 100 µM

Param item = COC(=O)C1=C(C(=O)OC)C23C=CC=CC24C(C(=O)OC)=C(C(=O)OC)C4C1C3 (stereo not given) ; retrieve measured TGI.
> 100 µM

* * *

System: HL-60(TB) leukemia
method notes: NCI tumour cell line growth inhibition, 48 h
Listing: TGI of selected compounds

These solved cases illustrate the format of a correct answer.
C/C=C(\C)C(=O)O[C@@H]1C(O)[C@H]2OC(COC(=O)CCC(=O)CCCCCC[C@H](CCCCC)O[C@@H]3OC(C)[C@H](OC(C)=O)C(O)[C@H]3O2)[C@H]1OC(=O)/C=C/c1ccccc1 (some centres undefined)
18.9 µM
Cc1ccc(N=C2CSc3nnc(-c4csc5c4CCCC5)n3N2)cc1
0.298 µM
Cc1nc2c(nc1C)-c1c(c3c(n1Cc1ccccc1)C(=O)CCC3)C(=O)C2=O
97.7 µM

Quick check: TGI on HL-60(TB) leukemia, item COc1cc(-c2oc3c(OC)c(OC)cc(O)c3c(=O)c2OC)ccc1O ?
7.58 µM

// fetch HL-60(TB) leukemia TGI for C#CC(O)/C=C/CCCCCCC#CC/C=C\CC#CCCCCCC/C=C/C(O)C#C (centres undefined)
3.86 µM

TGI of NC1CC2C3CCC2C1C3=O (centres undefined) on HL-60(TB) leukemia?
> 100 µM

Observed TGI on HL-60(TB) leukemia for COC(=O)c1ccccc1NC(=O)C(=O)CC(=O)c1ccccc1NC1=CC(=O)C(=O)c2ccccc21 , please.
12 µM

Observed TGI on HL-60(TB) leukemia for CCSc1nc2sc(C)c(C)c2c(=O)n1-c1ccc(C(=O)O)cc1 , please.
> 100 µM

What measured TGI is associated with Cc1ccc(C(=O)CC(Cl)=C(Cl)Cl)cc1 on HL-60(TB) leukemia?
> 100 µM

* * *

As shown below, each of these compounds has a reported TGI value.
Test system: CAKI-1 renal
method notes: NCI tumour cell line growth inhibition, 48 h
Reply numerically in nM, unit not repeated.

Sample answers from the record:
COC(=O)[C@@H]1c2cc3c(c(O)c2[C@@H](OC)C[C@@]1(C)O)C(=O)c1c(O)cc2c(c1C3=O)OC1O[C@@]2(C)[C@H](O)[C@@H](N(C)C)[C@@H]1O
749
COc1ccc(/C(Cl)=C(\C=O)c2ccc(F)cc2)cc1
41000

Next item in the queue.
// query TGI value for entry CS(=O)(=O)N1CCN(Cc2cc3nc(-c4cccc5[nH]ncc45)nc(N4CCOCC4)c3s2)CC1 (tested in a mixture with another compound)
462

* * *

Test system: IGROV1 ovarian
method notes: NCI tumour cell line growth inhibition, 48 h
Listing of entries alongside the reported TGI.

COC(=O)NCCc1[nH]nc2c1C(=O)C=C(OC)C2=O
34.9 µM
NC(=O)c1csc(C2C=CC(CO)O2)n1 (centres undefined)
> 100 µM
CC(C)(C)OC(=O)NCCCCCCCCn1c2c(c3ccccc3c1=O)C(=O)c1ccccc1-2
> 50 µM

Look up TGI for this molecule: COc1cc2cc(Oc3ccc(NC(=O)Nc4ccccc4)cc3)c(C)nc2cc1OCCN1CCCCC1
11 µM

Please look up its TGI: O=C(CCCCCCCCC(=O)NN1C(=O)/C(=C\c2ccc(O)c(O)c2)SC1c1c(O)ccc2ccccc12)NN1C(=O)C(=Cc2ccc(O)c(O)c2)SC1c1c(O)ccc2ccccc12 (centres undefined)
> 55.5 µM

* * *

Recorded TGI by entry
Test system: 786-0 renal
method notes: NCI tumour cell line growth inhibition, 48 h

I am curious: what TGI value has been reported for CO/N=C1\CCC2(O)C3Cc4ccc(O)c5c4C2(CCN3CC2CC2)[C@H]1O5 (stereo not given in full) ?
> 100 µM

* * *

Reported TGI values are given for each entry in this list.
System: CAKI-1 renal
method notes: NCI tumour cell line growth inhibition, 48 h

Record lookup: for CAKI-1 renal, what TGI belongs to CCSc1nc2sc(C)c(C)c2c(=O)n1-c1ccc(C(=O)O)cc1 ?
> 100 µM

Query for CAKI-1 renal: what TGI does the record show for Cn1ccc(=Nc2ccc(NC(=O)c3ccc(N=c4ccn(C)c5ccc([N+](=O)[O-])cc45)cc3)cc2)cc1 ?
> 100 µM

Lab request: please report TGI under test system CAKI-1 renal for C#CCN1CCN(C(=S)N/N=C(\C)c2ccccn2)CC1
12.8 µM

Which measured TGI belongs to CC12O[C@H](c3ccccc3)[C@H](c3ccccc3)N1C(=O)C1(C(=O)OCc3ccccc3)CC12 (stereo partly specified) , tested on CAKI-1 renal?
> 100 µM

Reported TGI for CAKI-1 renal, given COc1ccc(C(=O)N2CCN(c3ccc4c(c3)OCC(=O)N4)CC2)cc1 ?
> 100 µM

Give recorded TGI with CAKI-1 renal for the following compound: COC(=O)[C@]12CC[C@@H](C)[C@H](C)[C@@H]1C1=CC[C@@H]3[C@@]4(C)C(C=O)=C[C@@](C)(COC(C)=O)[C@@H]4[C@H](O)C[C@@]3(C)[C@]1(C)CC2
12.3 µM

Kindly state the measured TGI obtained for OC(c1cccs1)c1cc2ccccc2s1 (stereo unspecified) with CAKI-1 renal.
> 10 µM

Identify the measured TGI of O=C(O)CCC1COc2ccccc2O1 (stereo unspecified) for CAKI-1 renal.
> 10 µM

// map CCCCCCCCCCCCCCCCCCNc1ccn(C2OC(COP(=O)(O)O)C(O)C2O)c(=O)n1 (stereo unspecified) to recorded TGI (system: CAKI-1 renal)
> 100 µM

Value wanted: TGI (CAKI-1 renal) of entry CN(C)CCNC(=O)c1cccc2cc3ccccc3nc12
3.14 µM

* * *

Tested on: UACC-62 melanoma
method notes: NCI tumour cell line growth inhibition, 48 h
Examples of compounds with documented TGI follow.
The figure you give is taken to be in µM; do not add the unit.

Solved cases (5 shown):
O=C1/C(=C/c2ccccc2)SC(=Nc2ccccc2)N1Nc1ccccc1
39.4
CCCCCCOc1ccc(NC2=C(Cl)C(=O)c3cccnc3C2=O)cc1
3.28
c1ccc2nc3[nH]c4ccccc4c3cc2c1
2.2
Cc1cc2c(cc1O)CC[C@@H]1[C@@H]2CC[C@]2(C)[C@@H](O)CC[C@@H]12
21
C/C=C(\C)C(=O)O[C@@H]1C(O)[C@H]2OC(COC(=O)CCC(=O)CCCCCC[C@H](CCCCC)O[C@@H]3OC(C)[C@H](OC(C)=O)C(O)[C@H]3O2)[C@H]1OC(=O)/C=C/c1ccccc1 (some centres undefined)
1.01

Okay, next one:
Item under review: Cc1cc(C)c2c(n1)S(=O)(=O)N(CCCN1CCN(c3cccc(C(F)(F)F)c3)CC1)/C(=C(\O)c1ccccc1)C2=O . Reported TGI?
27.6

src = PubChem BioAssay (NCI)
